Consider the following compounds and their measured combination Emax readings.
- System: IGR-37 (Melanoma)
- method: combination Emax (second highest fraction inhibited in the dose matrix, 72 h); higher = more inhibition; extreme values may be limits of the assay

compound | combination Emax
COc1cccc(OCCCN)c1-c1cc(Nc2cnc(C#N)cn2)n[nH]1 [Prexasertib] + O=C(c1cc(Cc2n[nH]c(=O)c3ccccc23)ccc1F)N1CCN(C(=O)C2CC2)CC1 [Olaparib] (first compound max 1 µM, 7x7, partner max 10 µM) | 0.961
Cc1c2c(nn1C)CSCc1cc(n(C)n1)CSc1cc(c3ccccc3c1)OCCCc1c(C(=O)O)n(C)c3c-2c(Cl)ccc13 [AZD5991] + C=CCn1c(=O)c2cnc(Nc3ccc(N4CCN(C)CC4)cc3)nc2n1-c1cccc(C(C)(C)O)n1 [AZD1775] (first compound max 1 µM, partner max 1 µM) | 0.768
COc1cc2ncnc(Nc3ccc(F)c(Cl)c3)c2cc1OCCCN1CCOCC1 [Gefitinib] + CC(C)n1c(=O)n(C)c2cnc3cc(F)c(-c4ccc(OCCCN5CCCCC5)nc4)cc3c21 [AZD1390] (first compound max 10 µM, 7x7, partner max 0.3 µM) | 0.252
CN(CCO)CC[C@H](CSc1ccccc1)Nc1ccc(S(=O)(=O)NC(=O)c2ccc(N3CCC([C@@H](O)c4ccccc4-c4ccc(Cl)cc4)CC3)cc2)cc1S(=O)(=O)C(F)(F)F [AZD4320] + C[C@@H]1COCCN1C2=NC(=NC(=C2)C3(CC3)[S@](=N)(=O)C)C4=C5C=CNC5=NC=C4 [AZD6738] (first compound max 1 µM, 7x7, partner max 10 µM) | 0.796
COc1cccc(OCCCN)c1-c1cc(Nc2cnc(C#N)cn2)n[nH]1 [Prexasertib] + C=CCn1c(=O)c2cnc(Nc3ccc(N4CCN(C)CC4)cc3)nc2n1-c1cccc(C(C)(C)O)n1 [AZD1775] (first compound max 1 µM, partner max 1 µM) | 0.879

Ask: Respond only with combination Emax recorded for Cc1c2c(nn1C)CSCc1cc(n(C)n1)CSc1cc(c3ccccc3c1)OCCCc1c(C(=O)O)n(C)c3c-2c(Cl)ccc13 [AZD5991] + CS(=O)(=O)CCNCc1ccc(-c2ccc3ncnc(Nc4ccc(OCc5cccc(F)c5)c(Cl)c4)c3c2)o1 [Lapatinib] (first compound max 1 µM, 7x7, partner max 10 µM)
Result: 0.36

Ask: Answer with the recorded combination Emax of CN(CCO)CC[C@H](CSc1ccccc1)Nc1ccc(S(=O)(=O)NC(=O)c2ccc(N3CCC([C@@H](O)c4ccccc4-c4ccc(Cl)cc4)CC3)cc2)cc1S(=O)(=O)C(F)(F)F [AZD4320] + C1CN(CCC1(C(=O)N[C@@H](CCO)C2=CC=C(C=C2)Cl)N)C3=NC=NC4=C3C=CN4 [Capivasertib] (first compound max 1 µM, 7x7, partner max 3 µM) only.
Result: 0.186

###

- Test system: HCC1954 (Breast Carcinoma);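 further: after 72 h of two-drug dosing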
- method: Bliss excess, mean over the matrix (fraction); higher = more synergy
endpointLabel: Bliss excess

In the examples that follow, each entry is paired with its recorded Bliss excess.
compound | Bliss excess
Cc1c2c(nn1C)CSCc1cc(n(C)n1)CSc1cc(c3ccccc3c1)OCCCc1c(C(=O)O)n(C)c3c-2c(Cl)ccc13 [AZD5991] + C=CCn1c(=O)c2cnc(Nc3ccc(N4CCN(C)CC4)cc3)nc2n1-c1cccc(C(C)(C)O)n1 [AZD1775] (first compound max 1 µM, partner max 1 µM) | 0.0435
CC1(C)CCC(CN2CCN(c3ccc(C(=O)NS(=O)(=O)c4ccc(NCC5CCOCC5)c([N+](=O)[O-])c4)c(Oc4cnc5[nH]ccc5c4)c3)CC2)=C(c2ccc(Cl)cc2)C1 [Venetoclax] + CN(C)CCCOc1ccc(-c2ccc3ncc4c(c3c2)n(C2CCOCC2)c(=O)n4C)cn1 [AZD0156] (first compound max 1 µM, 7x7, partner max 1 µM) | 0.0044

Ask: State its Bliss excess for this compound: COc1nnc2ccc(N3CCC(c4ccc(OCCN5CCN(C)C(=O)[C@H]5C)cc4)CC3)nn12 [AZD5153] + C[C@@H]1COCCN1C2=NC(=NC(=C2)C3(CC3)[S@](=N)(=O)C)C4=C5C=CNC5=NC=C4 [AZD6738] (first compound max 1 µM, 7x7, partner max 10 µM)
Result: 0.0323

Ask: Item Cc1c2c(nn1C)CSCc1cc(n(C)n1)CSc1cc(c3ccccc3c1)OCCCc1c(C(=O)O)n(C)c3c-2c(Cl)ccc13 [AZD5991] + C[C@@H](Nc1cc(F)cc(F)c1)c1cc(C(=O)N(C)C)cc2c(=O)cc(N3CCOCC3)oc12 [AZD8186] (first compound max 1 µM, 7x7, partner max 3 µM) : provide Bliss excess
Result: 0.031

Ask: Supply measured Bliss excess of C=CCn1c(=O)c2cnc(Nc3ccc(N4CCN(C)CC4)cc3)nc2n1-c1cccc(C(C)(C)O)n1 [AZD1775] + O=C(c1cc(Cc2n[nH]c(=O)c3ccccc23)ccc1F)N1CCN(C(=O)C2CC2)CC1 [Olaparib] (first compound max 1 µM, partner max 10 µM) in your reply.
Result: -0.0208

Ask: Name the recorded Bliss excess of the item CS(=O)(=O)CCNCc1ccc(-c2ccc3ncnc(Nc4ccc(OCc5cccc(F)c5)c(Cl)c4)c3c2)o1 [Lapatinib] + NC1(c2ccc(-c3nc4ccn5c(=O)[nH]nc5c4cc3-c3ccccc3)cc2)CCC1 [MK-2206] (first compound max 10 µM, 7x7, partner max 10 µM) in your answer.
Result: 0.0952
